src = ChEMBL document CHEMBL4177553

- EXPERIMENTAL SYSTEM: Cytochrome P450 2C19 (Homo sapiens, UniProt P33261)
- Sequence (P33261 whole entry): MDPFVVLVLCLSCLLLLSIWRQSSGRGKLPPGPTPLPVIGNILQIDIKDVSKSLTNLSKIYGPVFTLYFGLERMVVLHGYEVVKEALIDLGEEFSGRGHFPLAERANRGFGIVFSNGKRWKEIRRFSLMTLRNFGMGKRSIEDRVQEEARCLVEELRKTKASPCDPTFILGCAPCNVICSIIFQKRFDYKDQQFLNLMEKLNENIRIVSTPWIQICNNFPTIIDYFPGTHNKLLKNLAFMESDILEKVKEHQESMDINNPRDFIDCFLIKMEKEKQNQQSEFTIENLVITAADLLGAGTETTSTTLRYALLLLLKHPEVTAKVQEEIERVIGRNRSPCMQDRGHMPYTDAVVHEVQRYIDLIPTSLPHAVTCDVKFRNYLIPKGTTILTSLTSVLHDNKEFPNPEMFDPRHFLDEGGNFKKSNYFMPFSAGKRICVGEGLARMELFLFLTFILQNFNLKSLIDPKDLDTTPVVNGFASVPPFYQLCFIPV
- TEST METHOD NOTES: Inhibition of CYP2C19 in human liver microsomes assessed as reduction in formation of mephenytoin to 4-Hydroxy mephenytoin at 50 uM preincubated for 30 mins followed by substrate addition measured after 15 mins in presence of NADPH by UPLC-MS analysis
- Format: ADME
- ASSAY CONDITIONS: 0.25 h
MEASURE NAME: inhibition (INH)

Here are 4 compounds together with their reported answers.
COMPOUND	inhibition (INH)
CC(=O)OC[C@]12[C@H](OC(C)=O)[C@H](OC(C)=O)[C@@H]3[C@@H](OC(C)=O)[C@@]14O[C@@]3(C)COC(=O)c1cccnc1CC[C@@](C)(O)C(=O)O[C@@H]([C@H](OC(=O)c1ccoc1)[C@@H]2OC(C)=O)[C@]4(C)O	Not Active
CC(=O)OC[C@]12[C@H](OC(C)=O)[C@H](OC(C)=O)[C@@H]3[C@@H](OC(C)=O)[C@@]14O[C@@]3(C)COC(=O)c1cccnc1CCC(C)C(=O)O[C@@H]([C@H](OC(=O)c1ccoc1)[C@@H]2OC(C)=O)[C@]4(C)O (stereo not given in full)	Not Active
CC(=O)OC[C@]12[C@H](OC(C)=O)[C@H](OC(C)=O)[C@@H]3[C@@H](OC(C)=O)[C@@]14O[C@@]3(C)COC(=O)c1cccnc1CC[C@H](C)C(=O)O[C@@H]([C@H](OC(=O)c1ccccc1)[C@@H]2OC(C)=O)[C@]4(C)O	Active
CC(=O)OC[C@]12[C@H](OC(C)=O)[C@H](OC(C)=O)[C@@H]3[C@@H](OC(C)=O)[C@@]14O[C@@]3(C)COC(=O)c1cccnc1CC[C@@](C)(O)C(=O)O[C@@H]([C@H](OC(=O)c1ccccc1)[C@@H]2OC(C)=O)[C@]4(C)O	Active

Now let's try a different one.
query: Look at this compound and give its reported inhibition (INH). "CC(=O)OC[C@@]12[C@H](OC(C)=O)[C@H](OC(C)=O)[C@@H]3[C@@H](OC(C)=O)[C@@]14O[C@@]3(C)COC(=O)c1cccnc1[C@@H](C)[C@H](C)C(=O)O[C@@H]([C@H](OC(C)=O)[C@@H]2OC(C)=O)[C@]4(C)O"
result: Not Active

----------
- EXPERIMENTAL SYSTEM: Cytochrome P450 1A2 (Homo sapiens, UniProt P05177)
- Sequence (P05177 whole entry): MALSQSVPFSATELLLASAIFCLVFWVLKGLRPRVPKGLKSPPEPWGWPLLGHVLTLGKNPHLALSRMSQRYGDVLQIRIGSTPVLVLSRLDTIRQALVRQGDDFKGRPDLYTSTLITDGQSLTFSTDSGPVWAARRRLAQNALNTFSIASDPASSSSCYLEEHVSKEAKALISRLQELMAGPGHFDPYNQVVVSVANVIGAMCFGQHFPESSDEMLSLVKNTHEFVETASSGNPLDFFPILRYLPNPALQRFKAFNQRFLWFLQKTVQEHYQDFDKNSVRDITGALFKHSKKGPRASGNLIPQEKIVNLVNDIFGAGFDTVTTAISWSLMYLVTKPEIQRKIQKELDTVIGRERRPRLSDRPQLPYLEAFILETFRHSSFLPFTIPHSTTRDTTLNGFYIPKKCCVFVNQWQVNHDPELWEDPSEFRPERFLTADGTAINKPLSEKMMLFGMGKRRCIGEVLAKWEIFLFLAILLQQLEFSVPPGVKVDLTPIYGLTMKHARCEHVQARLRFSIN
- TEST METHOD NOTES: Inhibition of CYP1A2 in human liver microsomes assessed as reduction in formation of phenacetin to acetaminophen at 50 uM preincubated for 30 mins followed by substrate addition measured after 15 mins in presence of NADPH by UPLC-MS analysis
- Format: ADME
- ASSAY CONDITIONS: 0.25 h
MEASURE NAME: inhibition (INH)

Worked examples, 4 molecules total:
MOLECULE	EXPERIMENTAL SYSTEM	inhibition (INH)
CC(=O)OC[C@@]12[C@H](OC(C)=O)[C@H](OC(C)=O)[C@@H]3[C@@H](OC(C)=O)[C@@]14O[C@@]3(C)COC(=O)c1cccnc1[C@@H](C)[C@H](C)C(=O)O[C@@H]([C@H](OC(C)=O)[C@@H]2OC(C)=O)[C@]4(C)O	Cytochrome P450 1A2 (Homo sapiens, UniProt P05177)	Not Active
CC(=O)OC[C@]12[C@H](OC(C)=O)[C@H](OC(C)=O)[C@@H]3[C@@H](OC(C)=O)[C@@]14O[C@@]3(C)COC(=O)c1cccnc1CC[C@H](C)C(=O)O[C@@H]([C@H](OC(=O)c1ccccc1)[C@@H]2OC(C)=O)[C@]4(C)O	Cytochrome P450 1A2 (Homo sapiens, UniProt P05177)	Active
CC(=O)OC[C@]12[C@H](OC(C)=O)[C@H](OC(C)=O)[C@@H]3[C@@H](OC(C)=O)[C@@]14O[C@@]3(C)COC(=O)c1cccnc1CCC(C)C(=O)O[C@@H]([C@H](OC(=O)c1ccoc1)[C@@H]2OC(C)=O)[C@]4(C)O (stereo not given in full)	Cytochrome P450 1A2 (Homo sapiens, UniProt P05177)	Not Active
CC(=O)OC[C@]12[C@H](OC(C)=O)[C@H](OC(C)=O)[C@@H]3[C@@H](OC(C)=O)[C@@]14O[C@@]3(C)COC(=O)c1cccnc1CC[C@@](C)(O)C(=O)O[C@@H]([C@H](OC(=O)c1ccoc1)[C@@H]2OC(C)=O)[C@]4(C)O	Cytochrome P450 1A2 (Homo sapiens, UniProt P05177)	Not Active

query: Any idea what its inhibition (INH) is? The molecule is "CC(=O)OC[C@]12[C@H](OC(C)=O)[C@H](OC(C)=O)[C@@H]3[C@@H](OC(C)=O)[C@@]14O[C@@]3(C)COC(=O)c1cccnc1CC[C@@](C)(O)C(=O)O[C@@H]([C@H](OC(=O)c1ccccc1)[C@@H]2OC(C)=O)[C@]4(C)O"
result: Active
